Test system: esophageal carcinoma (CE81T)
Assay: In vitro anticancer assay (MTT), CE81T
Format: cell-based
Details: CE81T cells, 48 hrs, mean ± spread, read-out: Anti-proliferative evaluation IC50, CE81T
# note: exactly 4 µM is not below, so it is Not fulfilled; use Fulfilled for IC50 strictly under it

In [3]: df
Out[3]:
                                 smilestext          group
0  ON=C1c2cc(F)ccc2-c2c(N3CCNCC3)nc3ccccc3c21      Fulfilled
1  COc1ccc2c(c1)C(=O)c1c-2c(N2CCNCC2)nc2ccc(F)cc12      Fulfilled
2  COc1ccc2c(c1)C(=NOCc1ccccc1)c1c-2c(N2CCNCC2)nc2ccccc12      Fulfilled
3  COc1ccc2c(c1)C(=O)c1c-2c(N2CCN(C(=O)CCO)CC2)nc2ccccc12  Not fulfilled
4  CNCCC(=O)N1CCN(c2nc3ccccc3c3c2-c2ccc(OC)cc2C3=O)CC1      Fulfilled
5   COc1ccc2c(c1)C(=NO)c1c-2c(OC)nc2ccccc12  Not fulfilled
6  COc1ccc2c(c1)C(=NO)c1c-2c(N2CCN(C(=O)CCNCCN(C)C)CC2)nc2ccccc12  Not fulfilled
7  CON=C1c2cc(OC)ccc2-c2c(N3CCNCC3)nc3ccccc3c21  Not fulfilled

Q. I'd appreciate it if you could check whether COc1ccc2c(c1)C(=O)c1c-2c(N2CCN(C(=O)CCNCCN(C)C)CC2)nc2ccccc12 has IC50 smaller than 4 µM.
A. Not fulfilled

Q. Could you do the same for CNCC(=O)N1CCN(c2nc3ccccc3c3c2-c2ccc(OC)cc2C3=O)CC1 , please?
A. Fulfilled

---

Where a name gives a salt, the structure may show the parent alone.
experimentalReadout: melting point

Worked cases, melting point given:
>>> df
                                   compound         result
0  COc1ccc2c(c1)C(=O)c1c-2cnc2ccccc12 [Compound 5d]  195 to 196 °C
1  CON=C1c2ccccc2-c2c(N3CCNCC3)nc3ccccc3c21 (as salt: salt) [Compound 6j]  149 to 150 °C
2  COc1ccc2c(c1)C(=O)c1c-2c(N2CCN(C(=O)CCCl)CC2)nc2ccccc12 [Compound 5hh]  162 to 163 °C

Dear colleague, could you please provide melting point for the compounds listed below?
1. CN(C)CCNc1nc2ccccc2c2c1-c1ccccc1C2=O [Compound 5a]
2. COc1ccc2c(c1)C(=O)c1c-2c(O)nc2ccccc12 [Compound 5e]

A.
1. 148 to 149 °C
2. 316 to 317 °C

Hey, can you go through the list below and give me melting point for every item?
1. COc1ccc2c(c1)C(=O)c1c-2c(N2CCNCC2)nc2ccccc12 [Compound 5x]
2. COc1ccc2c(c1)C(=O)c1c-2c(Nc2ccc(C(C)=O)cc2)nc2ccccc12 [Compound 5s]
3. COc1ccc2c(c1)C(=NO)c1c-2cnc2ccccc12 [Compound 6a]

A.
150 to 151 °C
251 to 252 °C
270 to 271 °C

---

System: oral squamous cell carcinoma (SAS)
Experiment: In vitro anticancer assay (MTT), SAS
Assay type: cell-based
Conditions: SAS cells, 48 hrs, mean ± spread, read-out: Anti-proliferative evaluation IC50, SAS
Structures can show the parent of a compound that is named as a salt.
experimentalReadout: IC50 (µM)
Numbers only, in µM.

compound	measuredOn	experimentalReadout	unitDescriptor	quantitativeReadout
COc1cccc2c1C(=O)c1c-2c(N2CCNCC2)nc2ccccc12	oral squamous cell carcinoma (SAS)	IC50	µM	5.1
CN(C)CCCNc1nc2ccccc2c2c1-c1ccccc1C2=O	oral squamous cell carcinoma (SAS)	IC50	µM	6.9
CN(C)CCNc1nc2ccccc2c2c1-c1ccccc1C2=O	oral squamous cell carcinoma (SAS)	IC50	µM	6.6
COc1ccc2c(c1)C(=NO)c1c-2c(N2CCN(C(=O)CCNCCN(C)C)CC2)nc2ccccc12	oral squamous cell carcinoma (SAS)	IC50	µM	7.3
COc1cccc2c1C(=O)c1c(O)c3c(c(O)c1C2=O)C[C@@](O)(C(=O)CO)C[C@@H]3O[C@H]1C[C@H](N)[C@H](O)[C@H](C)O1 [Dox, doxorubicin hydrochloride, reference compound]	oral squamous cell carcinoma (SAS)	IC50	µM	5.7

Give one value of IC50 per listed compound.
1. COc1ccc2c(c1)C(=O)c1c-2c(N2CCN(C(=O)CCN3CCNCC3)CC2)nc2ccccc12
2. COc1ccc2c(c1)C(=O)c1c-2c(N2CCCNCC2)nc2ccccc12
3. COc1ccc2c(c1)C(=NOCC(O)CN(C)C)c1c-2c(N2CCN(CC(O)CN(C)C)CC2)nc2ccccc12 (centres unmarked)
4. COc1ccc2c(c1)C(=NOCCCN(C)C)c1c-2c(N2CCNCC2)nc2ccccc12

A.
7.7
10.2
9
4.9

List IC50 for every entry below, keeping the order given.
1. CNCC(O)CN1CCN(c2nc3ccccc3c3c2-c2ccc(OC)cc2C3=O)CC1 (centres unmarked)
2. COc1ccc2c(c1)C(=O)c1c-2c(N2CCN(C(=O)CCN(C)C)CC2)nc2ccccc12
3. ON=C1c2ccccc2-c2c(N3CCNCC3)nc3ccccc3c21
4. COc1ccc2c(c1)C(=O)c1c-2c(Nc2ccc(C(C)=O)cc2)nc2ccccc12
5. COc1ccc2c(c1)C(=O)c1c-2c(N2CCN(C(=O)CCNCCCN(C)C)CC2)nc2ccccc12
6. COc1ccc2c(c1)C(=NOCCN1CCCC1)c1c-2c(O)nc2ccccc12

A.
[7.4, 17, 7.3, 6.5, 13.5, 0.8]

---

Tested on: hepatocellular carcinoma (SKHep1)
Assay: In vitro anticancer assay (MTT), SKHep1
Assay type: cell-based
Conditions: Homo sapiens, SK-HEP1, SKHep1 cells, 48 hrs, mean ± spread, read-out: Anti-proliferative evaluation IC50, SKHep1
pIC50: −log10 of the molar value. Where a name gives a salt, the structure may show the parent alone.
Would you please tag the item met when its pIC50 is 6 or above, and not met when it is below?

The examples below pair each entry with its known result.
compound	group
COc1cccc2c1C(=O)c1c(O)c3c(c(O)c1C2=O)C[C@@](O)(C(=O)CO)C[C@@H]3O[C@H]1C[C@H](N)[C@H](O)[C@H](C)O1 [Dox, doxorubicin hydrochloride, reference compound]	met
COc1ccc2c(c1)C(=NOCCCN)c1c-2c(N2CCNCC2)nc2ccccc12 [Compound 6t]	not met
COc1ccc2c(c1)C(=O)c1c-2c(N2CCN(CC3CO3)CC2)nc2ccccc12 (stereo not shown) [Compound 5kkk]	not met
CC[C@@]1(O)C(=O)OCc2c1cc1n(c2=O)Cc2cc3ccccc3nc2-1 [CPT, (+)-camptothecin, reference compound]	met
CN(C)CCNc1nc2ccccc2c2c1-c1ccccc1C2=O [Compound 5a]	not met
COc1ccc2c(c1OC)C(=O)c1c-2c(N2CCNCC2)nc2ccc(Cl)cc12 [Compound 5ff]	not met

Moving on to another compound below.
Q. Determine whether measured pIC50 meets or exceeds 6 for COc1ccc2c(c1)C(=O)c1c-2c(N2CCNCC2)nc2ccc(F)cc12 [Compound 5ee]
A. not met

---

Can you tell me IC50 for the items I'm about to list?
Tested on: oral squamous cell carcinoma (SAS)
Test: In vitro anticancer assay (MTT), SAS
Format: cell-based
Conditions: SAS cells, 48 hrs, mean ± spread, read-out: Anti-proliferative evaluation IC50, SAS

Reference set (2 entries):
                                   compound                          measuredon  experimentalreadout   result
0  COc1ccc2c(c1)C(=O)c1c-2c(N2CCC(N)C2)nc2ccccc12 (stereo not drawn)  oral squamous cell carcinoma (SAS)                 IC50  > 30 µM
1  COc1ccc2c(c1)C(=O)c1c-2c(N2CCN(C(=O)CCNCCNCCO)CC2)nc2ccccc12  oral squamous cell carcinoma (SAS)                 IC50  > 30 µM

Q. Could you tell me which IC50 is on file for COc1ccc2c(c1)C(=O)c1c-2c(N2CCN(C(=O)CCNCCN3CCNCC3)CC2)nc2ccccc12 ?
A. > 30 µM

---

Tested on: esophageal carcinoma (CE81T)
Experiment: In vitro anticancer assay (MTT), CE81T
Format: cell-based
Conditions: CE81T cells, 48 hrs, mean ± spread, read-out: Anti-proliferative evaluation IC50, CE81T
experimentalReadout: IC50

Examples with answers:
                                   molecule   result
0  COc1ccc2c(c1)C(=O)c1c-2c(N2CCN(C(=O)CNCCN)CC2)nc2ccccc12  > 30 µM
1  COc1ccc2c(c1)C(=O)c1c-2c(N2CCN(CC(O)CN(C)C)CC2)nc2ccccc12 (stereo not shown)   4.8 µM
2  COc1ccc2c(c1)C(=O)c1c-2c(N2CCN(C(=O)CCN(C)C)CC2)nc2ccccc12  > 30 µM
3  COc1ccc2c(c1)C(=O)c1c-2c(N2CCN(C(=O)CCNCCN3CCNCC3)CC2)nc2ccccc12  > 30 µM
4  COc1ccc2c(c1)C(=NOCCCN)c1c-2c(N2CCNCC2)nc2ccccc12   6.5 µM

Parameters: items (list). Returns: IC50 for each item.
1. COc1ccc2c(c1)C(=O)c1c-2c(N2CCN(C(=O)CNCCCN(C)CCCN)CC2)nc2ccccc12
2. COc1ccc2c(c1)C(=O)c1c-2c(N2CCN(C(=O)CCNCCNCCO)CC2)nc2ccccc12
3. COc1ccc2c(c1)C(=O)c1c-2c(N2CCN(C(=O)CNCCN3CCNCC3)CC2)nc2ccccc12
4. COc1ccc2c(c1)C(=O)c1c-2c(N2CCN(C(=O)CNCCO)CC2)nc2ccccc12
5. COc1ccc2c(c1)C(=O)c1c-2c(N2CCN(C(=O)CN(C)C)CC2)nc2ccccc12

A.
1: > 30 µM; 2: > 30 µM; 3: 8.4 µM; 4: 9.2 µM; 5: > 30 µM

Quick batch: IC50 for everything below.
1. COc1ccc2c(c1)C(=O)c1c-2c(N2CCN(C(=O)CCCN(C)C)CC2)nc2ccccc12
2. COc1ccc2c(c1)C(=NOCCN1CCCCC1)c1c-2c(N2CCNCC2)nc2ccccc12
3. COc1ccc2c(c1)C(=O)c1c-2c(N2CCNCC2)nc2ccccc12
4. COc1ccc2c(c1)C(=NO)c1c-2c(N2CCNCC2)nc2ccccc12
5. COc1ccc2c(c1)C(=O)c1c-2c(N2CCN(C(=O)CNCCN(C)C)CC2)nc2ccccc12
6. COc1cccc2c1C(=O)c1c-2c(N2CCNCC2)nc2ccccc12
7. COc1ccc2c(c1)C(=O)c1c-2c(N2CCCNCC2)nc2ccccc12

A.
> 30 µM
> 30 µM
> 30 µM
2.6 µM
> 30 µM
4.9 µM
4.9 µM

Hey, can you go through the list below and give me IC50 for every item?
1. COc1ccc2c(c1)C(=O)c1c-2c(N2CCN(C(=O)CCNCCN)CC2)nc2ccccc12
2. COc1cc2c(cc1OC)-c1c(N3CCNCC3)nc3ccccc3c1C2=O

A.
1: > 30 µM; 2: 8.3 µM
